- Tested on: PPARg:RXRa IVT, anti-PPARg (NR concentration 270 nM, RXRa partner concentration 90 nM)
- experiment: PBM binding z-score (relative to random genomic background probes); higher = stronger binding; sequences stand for … in GC…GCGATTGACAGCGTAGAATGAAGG
Criterion: PBM binding z-score meeting or surpassing 4. Met: satisfied. Not met: not satisfied.

Examples with answers:
seq: TCTTGTAGATCAACGGGAGGTTAAGAAAGATCGA
cat: not satisfied

seq: TCATATAGGTAAACAGGTGAAAGTTCGTAAGTTA
cat: satisfied

seq: CAAACTCGGTCACGAAAGGTCAAAGTCGAATGAC
cat: satisfied

seq: CCTACTGGGCCCAGGTCATTGATCAGTCAAAGCA
cat: not satisfied

Would you kindly look at the next entry?
In plain terms: is recorded PBM binding z-score at least 4 for `CCTTACGGGTCAAAGTTATAGCACGGGTGGTACG` ?
not satisfied
